Hey, just so you know, these numbers are from ChEMBL document CHEMBL6182942.

# method description: Half life in Sprague-Dawley rat at 30 mg/kg, po administered via gavage by LC-MS/MS analysis
# Type: ADME, organism-based
# condition info: in vivo
value type: half-life (h)
Write the number in h without appending the unit.

Let me know recorded half-life for Cc1cccc(-c2nn3c(c2-c2ccc4ncnn4c2/C=C/C(N)=O)CCC3)n1 , thanks. 2.01

====

# experimental system: TGF-beta receptor type-1 (Homo sapiens, UniProt P36897)
# Sequence (P36897 whole entry): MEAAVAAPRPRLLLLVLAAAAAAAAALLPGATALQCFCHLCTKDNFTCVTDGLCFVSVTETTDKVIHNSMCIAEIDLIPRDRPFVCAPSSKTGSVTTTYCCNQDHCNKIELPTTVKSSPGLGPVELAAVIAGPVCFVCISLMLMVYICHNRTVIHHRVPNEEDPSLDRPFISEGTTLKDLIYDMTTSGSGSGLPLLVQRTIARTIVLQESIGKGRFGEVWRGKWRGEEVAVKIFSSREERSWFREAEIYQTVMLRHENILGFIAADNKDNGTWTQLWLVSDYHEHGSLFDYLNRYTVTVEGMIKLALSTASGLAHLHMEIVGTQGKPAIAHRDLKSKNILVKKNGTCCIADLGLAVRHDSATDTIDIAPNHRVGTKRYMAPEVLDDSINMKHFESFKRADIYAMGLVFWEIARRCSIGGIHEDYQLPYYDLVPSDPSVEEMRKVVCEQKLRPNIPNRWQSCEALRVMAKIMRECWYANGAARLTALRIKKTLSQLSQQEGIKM
# method description: Inhibition of TGFbetaR1 (unknown origin) in presence of ATP
Friendly reminder: IC50 below 200 nM is Satisfied, at or above is Not satisfied.

Cc1cccc(-c2nn(Cc3cccc(C#N)c3)cc2-c2ccc3ncnn3c2C=CC(N)=O)n1 | Not satisfied
Cc1cccc(-c2nn3c(c2-c2ccnc(Nc4ccc(C(N)=O)cc4)c2)CCC3)n1 | Satisfied
Cc1cccc(-c2nn(Cc3cccc(C(F)F)c3)cc2-c2ccc3ncnn3c2/C=C/C(N)=O)n1 | Satisfied
Cc1cccc(-c2nn3c(c2-c2ccc4ncnn4c2/C=C/C(=O)NO)CCC3)n1 | Satisfied
Cc1cccc(-c2nn3c(c2-c2ccnc(-c4cccc(C(N)=O)c4)c2)CCC3)n1 | Not satisfied

Please check: IC50 for Cc1cccc(-c2nn3c(c2-c2ccc4ncnn4c2CN2CC(O)C2)CCC3)n1 , strictly under 200 nM or not? Not satisfied

is_below(IC50, 200 nM) for Cc1cccc(-c2nn(C(C)C)cc2-c2ccc3ncnn3c2/C=C/C(N)=O)n1 ? Not satisfied

Regarding Cc1cc(C)nc(-c2nn3c(c2-c2ccc4ncnn4c2/C=C/C(N)=O)CCC3)c1 , kindly confirm whether its IC50 is beneath 200 nM. Not satisfied

Consider the molecule Cc1cccc(-c2nn3c(c2-c2ccc4ncnn4c2CN2CCNC(=O)C2)CCC3)n1 . Is its IC50 strictly less than 200 nM? Not satisfied

====

# method description: Intrinsic clearance in human hepatocytes at 1 uM measured after 90 mins by LC-MS/MS analysis
# Assay type: ADME, cell-based, Hepatocyte
# condition info: read-out: CLH
value type: CLint scaled at […], 1 µM

Assign CLint scaled at […], 1 µM to the following record: Cc1cccc(-c2nn3c(c2-c2ccc4ncnn4c2/C=C/C(N)=O)CCC3)n1 < 6.9 mL/min/kg

====

# method description: Oral bioavailability in Sprague-Dawley rat at 30 mg/kg administered via gavage by LC-MS/MS analysis
# Format: ADME, organism-based
# condition info: in vivo
value type: bioavailability (%)
Give the number; % is assumed, so skip it.

Name the recorded bioavailability of the molecule listed here: Cc1cccc(-c2nn3c(c2-c2ccc4ncnn4c2/C=C/C(N)=O)CCC3)n1 29.9

====

# method description: Volume of distribution at steady state in Sprague-Dawley rat at 1 mg/kg, iv by LC-MS/MS analysis
# Assay type: ADME, organism-based
# condition info: in vivo, read-out: Vdss
value type: Vd
Returns: string containing the numeric result and its unit.

Identify the reported Vd for the following entry. Cc1cccc(-c2nn3c(c2-c2ccc4ncnn4c2/C=C/C(N)=O)CCC3)n1 1.44 L/kg

====

Vd values by entry
# method description: Volume of distribution at steady state in CD-1 mouse at 1 mg/kg, iv by LC-MS/MS analysis
# Assay type: ADME, organism-based
# condition info: in vivo, read-out: Vdss
Please report the result as a number followed by the unit.

Cc1cccc(-c2nn3c(c2-c2ccc4ncnn4c2/C=C/C(C)(C)O)CCC3)n1 | 0.849 L/kg

Now take the following molecule into account.
Let me know recorded Vd for Cc1cccc(-c2nn3c(c2-c2ccc4ncnn4c2/C=C/C(N)=O)CCC3)n1 , thanks. 1.4 L/kg

====

# method description: Half life in Sprague-Dawley rat at 1 mg/kg, iv by LC-MS/MS analysis
# Type: ADME, organism-based
# condition info: in vivo
value type: half-life (min)
Give just the numeric value; min need not be written.

For the compound Cc1cccc(-c2nn3c(c2-c2ccc4ncnn4c2/C=C/C(N)=O)CCC3)n1 , report half-life. 52.2

====

# method description: Protein binding in human plasma at 0.2 to 10 uM measured after 4 hrs by equilibrium dialysis based LC-MS/MS analysis
# Format: ADME, cell-free
# condition info: dose 0.2-10 µM, read-out: PPB (converted)
value type: fraction unbound at 4 h, up to 10 µM
Answer as a number with no unit attached.

Specify fraction unbound at 4 h, up to 10 µM for Cc1cccc(-c2nn3c(c2-c2ccc4ncnn4c2/C=C/C(N)=O)CCC3)n1 and stop. 0.556

====

# experimental system: TGF-beta receptor type-1 (Homo sapiens, UniProt P36897)
# method description: Inhibition of TGFbetaR1 (unknown origin) in presence of ATP
This listing pairs compounds with measured pIC50.
pIC50 is defined as minus the log10 of a concentration measured in mol/L.

# count of solved cases: 5
Cc1cccc(-c2nn3c(c2-c2ccc4ncsc4c2/C=C/C(N)=O)CCC3)n1 | 6.68
Cc1cccc(-c2nn3c(c2-c2ccc4ncccc4c2/C=C/C(N)=O)CCC3)n1 | 6.01
Cc1cccc(-c2nn3c(c2-c2ccc4ncnn4c2C(N)=O)CCC3)n1 | 5.37
Cc1cccc(-c2nn3c(c2-c2ccc4ncnn4c2/C=C/C(=O)NCCO)CCC3)n1 | 6.55
CNC(=O)/C=C/c1c(-c2c(-c3cccc(C)n3)nn3c2CCC3)ccc2ncnn12 | 6.61

Look up TGF-beta receptor type-1 (Homo sapiens, UniProt P36897) data: pIC50 of Cc1cccc(-c2nn(C3CCCC3)cc2-c2ccc3ncnn3c2/C=C/C(N)=O)n1 , then report it. 6.56

Give the observed pIC50 of CCc1cccc(-c2nn3c(c2-c2ccc4ncnn4c2/C=C/C(N)=O)CCC3)n1 for TGF-beta receptor type-1 (Homo sapiens, UniProt P36897). 6.38

Fill in: pIC50 on TGF-beta receptor type-1 (Homo sapiens, UniProt P36897), entry Cc1cccc(-c2nn(C)c(C)c2-c2ccc3ncnn3c2/C=C/C(N)=O)n1 6.60

====

# method description: Protein binding in Beagle dog plasma at 0.2 to 10 uM measured after 4 hrs by equilibrium dialysis based LC-MS/MS analysis
# Format: ADME, cell-free, Canis lupus familiaris
# condition info: dose 0.2-10 µM, read-out: PPB (converted)
value type: fraction unbound at 4 h, up to 10 µM
Please give the numeric answer without any surrounding text.

Tell me measured fraction unbound at 4 h, up to 10 µM for Cc1cccc(-c2nn3c(c2-c2ccc4ncnn4c2/C=C/C(N)=O)CCC3)n1 please. 0.476

====

# method description: Metabolic stability in human liver microsomes assessed as parent compound remaining at 1 uM preincubated for 5 mins followed by NADPH addition by LC-MS/MS analysis
# Assay type: ADME, Microsome
# condition info: read-out: Stability
value type: remaining at 1 µM (%)
Report the value in % with no unit label.

# annotated cases, reported remaining at 1 µM shown
Cc1cccc(-c2nn3c(c2-c2ccc4ncnn4c2/C=C/C(=O)NO)CCC3)n1 | 42.5
Cc1cccc(-c2nn(Cc3cccc(C#N)c3)cc2-c2ccc3ncnn3c2C=CC(N)=O)n1 | 56.2
Cc1cccc(-c2nn3c(c2-c2ccc4ncnn4c2/C=C/C(C)(C)O)CCC3)n1 | 54.8
Cc1cccc(-c2nn3c(c2-c2ccc4ncnn4c2/C=C/C(N)=O)CCC3)n1 | 87.5

Supply measured remaining at 1 µM of Cc1cccc(-c2nn(Cc3cccc(C(F)F)c3)cc2-c2ccc3ncnn3c2/C=C/C(N)=O)n1 in your reply. 9.5

====

# method description: Kinetic solubility of the compound in pH 7.4 aqueous buffer
# Assay type: physicochemical
# condition info: read-out: Kinetic_solubility
value type: solubility kinetic (µM)
Write the value in µM as a bare number.

Give the reported solubility kinetic for this molecule. Cc1cccc(-c2nn3c(c2-c2ccc4ncnn4c2/C=C/C(N)=O)CCC3)n1 185

====

half-life by entry:
# method description: Half life in CD-1 mouse at 5 mg/kg, po via gavage by LC-MS/MS analysis
# Format: ADME, organism-based
# condition info: in vivo
Quick note: give the figure in min, leave out the unit.

Cc1cccc(-c2nn3c(c2-c2ccc4ncnn4c2/C=C/C(C)(C)O)CCC3)n1 | 50.5

Specify half-life for Cc1cccc(-c2nn3c(c2-c2ccc4ncnn4c2/C=C/C(N)=O)CCC3)n1 and stop. 55
